tested_on: Recombinant human integrin αvβ8 (Homo sapiens, UniProt P06756+P26012)
Construct: purchased R&D Systems 4135-AV
Sequence (P06756 31-992 limits assumed): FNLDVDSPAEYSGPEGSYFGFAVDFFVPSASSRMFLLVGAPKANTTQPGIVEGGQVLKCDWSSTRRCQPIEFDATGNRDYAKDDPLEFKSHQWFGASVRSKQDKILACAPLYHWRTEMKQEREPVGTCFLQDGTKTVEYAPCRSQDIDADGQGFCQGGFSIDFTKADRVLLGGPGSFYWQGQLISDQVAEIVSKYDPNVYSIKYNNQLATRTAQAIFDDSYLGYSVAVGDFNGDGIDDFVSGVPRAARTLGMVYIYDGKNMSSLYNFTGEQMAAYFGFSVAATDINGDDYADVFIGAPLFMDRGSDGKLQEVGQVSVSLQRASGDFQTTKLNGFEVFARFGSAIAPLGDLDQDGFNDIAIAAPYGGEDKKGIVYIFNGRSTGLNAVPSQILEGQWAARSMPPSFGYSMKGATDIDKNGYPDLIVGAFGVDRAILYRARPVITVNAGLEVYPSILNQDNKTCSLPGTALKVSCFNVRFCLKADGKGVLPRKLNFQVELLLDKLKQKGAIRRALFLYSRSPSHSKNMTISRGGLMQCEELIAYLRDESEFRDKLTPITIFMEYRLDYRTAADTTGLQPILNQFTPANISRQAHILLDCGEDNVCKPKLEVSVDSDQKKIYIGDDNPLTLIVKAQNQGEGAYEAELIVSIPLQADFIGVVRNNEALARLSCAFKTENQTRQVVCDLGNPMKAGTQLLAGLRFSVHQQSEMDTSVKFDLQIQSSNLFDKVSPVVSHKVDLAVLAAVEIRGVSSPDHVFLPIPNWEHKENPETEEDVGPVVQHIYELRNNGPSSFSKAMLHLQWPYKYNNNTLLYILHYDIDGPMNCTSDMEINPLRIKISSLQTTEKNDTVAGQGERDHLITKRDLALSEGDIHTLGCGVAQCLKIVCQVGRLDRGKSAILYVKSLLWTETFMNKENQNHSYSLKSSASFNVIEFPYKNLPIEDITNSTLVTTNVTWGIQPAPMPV
Sequence (P26012 43-684 limits assumed): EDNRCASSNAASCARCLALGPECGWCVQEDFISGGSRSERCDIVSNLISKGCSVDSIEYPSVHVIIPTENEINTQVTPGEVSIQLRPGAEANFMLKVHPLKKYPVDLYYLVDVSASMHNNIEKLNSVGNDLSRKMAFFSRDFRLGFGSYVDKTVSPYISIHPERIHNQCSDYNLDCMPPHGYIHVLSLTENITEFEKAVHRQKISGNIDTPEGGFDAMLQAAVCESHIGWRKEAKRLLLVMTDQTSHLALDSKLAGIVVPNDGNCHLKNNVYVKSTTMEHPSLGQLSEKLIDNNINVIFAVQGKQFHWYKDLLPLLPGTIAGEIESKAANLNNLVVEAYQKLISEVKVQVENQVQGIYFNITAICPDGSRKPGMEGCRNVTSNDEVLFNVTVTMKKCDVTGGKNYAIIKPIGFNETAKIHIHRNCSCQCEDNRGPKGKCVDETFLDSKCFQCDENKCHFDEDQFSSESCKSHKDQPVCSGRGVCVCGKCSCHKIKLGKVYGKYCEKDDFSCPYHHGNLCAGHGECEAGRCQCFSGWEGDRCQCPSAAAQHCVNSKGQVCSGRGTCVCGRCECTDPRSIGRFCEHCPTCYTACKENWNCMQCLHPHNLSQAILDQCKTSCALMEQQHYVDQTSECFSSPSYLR
assay_comment: Solid Phase Receptor Assay for αvβ8 Function
experimental_parameters: binding to LAP-coated plate; read-out: αvβ8 SPRA IC50
readout_type: pIC50
The quantity pIC50 is defined as the negative base-10 logarithm of the molar concentration.

Check out these entries, answers already filled in.
CC(C)(O)c1cc([C@H](CC(=O)O)NC(=O)CNC(=O)c2cc(O)cc(NC3=NCC(O)CN3)c2)cc(C(F)(F)F)c1 (some centres unmarked); 9.22
CC(C)(C)c1cc(Br)cc([C@H](CC(=O)O)NC(=O)CNC(=O)c2cc(O)cc(NC3=NCCN3)c2)c1; 10.00
CC(C)(C)c1cc(Br)cc([C@H](CC(=O)O)NC(=O)CNC(=O)c2cccc(NC(=N)N)c2)c1; 9.70
O=C(O)C[C@H](NC(=O)CNC(=O)c1cc(O)cc(NC2=NCC(O)CN2)c1)c1cc(Cl)cc(C2(CO)CCOCC2)c1 (some centres unmarked); 9.40
CC(C)(C#N)c1cc(Br)cc([C@H](CC(=O)O)NC(=O)CNC(=O)c2cc(O)cc(NC3=NCC(O)CN3)c2)c1 (some centres unmarked); 9.70
COCC1(c2cc(Cl)cc([C@H](CC(=O)O)NC(=O)CNC(=O)c3cc(O)cc(NC4=NCC(O)CN4)c3)c2)CCOCC1 (some centres unmarked); 9.40
CC(C)(C)c1cc([C@H](CC(=O)O)NC(=O)CNC(=O)c2cncc(NC(=N)N)c2)cc(C(C)(C)C)c1; 9.70
CC(C)(C)c1cc(Br)c(O)c([C@H](CC(=O)O)NC(=O)CNC(=O)c2cc(O)cc(NC3=NCC(O)CN3)c2)c1 (some centres unmarked); 10.00
CC(C)(C)c1cc(-c2cccnc2)cc([C@H](CC(=O)O)NC(=O)CNC(=O)c2cc(O)cc(NC3=NCC(O)CN3)c2)c1 (some centres unmarked); 9.52
CC(C)(O)c1cc(Cl)cc([C@H](CC(=O)O)NC(=O)CNC(=O)c2cc(O)cc(NC3=NCC(O)CN3)c2)c1 (some centres unmarked); 9.22

Form: molecule = CC(C)(C)c1cc(Br)cc([C@H](CC(=O)O)NC(=O)CNC(=O)c2cncc(NC(=N)N)c2)c1 ; pIC50 = 9.52

Form: molecule = CC(C)(CO)c1cc(Cl)cc([C@H](CC(=O)O)NC(=O)CNC(=O)c2cc(O)cc(NC3=NCC(O)CN3)c2)c1 (some centres unmarked) ; pIC50 = 9.52

Form: molecule = COCC(C)(C)c1cc(Cl)cc([C@H](CC(=O)O)NC(=O)CNC(=O)c2cc(O)cc(NC3=NCC(O)CN3)c2)c1 (some centres unmarked) ; pIC50 = 9.52
